study-target: Tyrosine-protein kinase receptor UFO (Homo sapiens, UniProt P30530)
Sequence (P30530 whole entry): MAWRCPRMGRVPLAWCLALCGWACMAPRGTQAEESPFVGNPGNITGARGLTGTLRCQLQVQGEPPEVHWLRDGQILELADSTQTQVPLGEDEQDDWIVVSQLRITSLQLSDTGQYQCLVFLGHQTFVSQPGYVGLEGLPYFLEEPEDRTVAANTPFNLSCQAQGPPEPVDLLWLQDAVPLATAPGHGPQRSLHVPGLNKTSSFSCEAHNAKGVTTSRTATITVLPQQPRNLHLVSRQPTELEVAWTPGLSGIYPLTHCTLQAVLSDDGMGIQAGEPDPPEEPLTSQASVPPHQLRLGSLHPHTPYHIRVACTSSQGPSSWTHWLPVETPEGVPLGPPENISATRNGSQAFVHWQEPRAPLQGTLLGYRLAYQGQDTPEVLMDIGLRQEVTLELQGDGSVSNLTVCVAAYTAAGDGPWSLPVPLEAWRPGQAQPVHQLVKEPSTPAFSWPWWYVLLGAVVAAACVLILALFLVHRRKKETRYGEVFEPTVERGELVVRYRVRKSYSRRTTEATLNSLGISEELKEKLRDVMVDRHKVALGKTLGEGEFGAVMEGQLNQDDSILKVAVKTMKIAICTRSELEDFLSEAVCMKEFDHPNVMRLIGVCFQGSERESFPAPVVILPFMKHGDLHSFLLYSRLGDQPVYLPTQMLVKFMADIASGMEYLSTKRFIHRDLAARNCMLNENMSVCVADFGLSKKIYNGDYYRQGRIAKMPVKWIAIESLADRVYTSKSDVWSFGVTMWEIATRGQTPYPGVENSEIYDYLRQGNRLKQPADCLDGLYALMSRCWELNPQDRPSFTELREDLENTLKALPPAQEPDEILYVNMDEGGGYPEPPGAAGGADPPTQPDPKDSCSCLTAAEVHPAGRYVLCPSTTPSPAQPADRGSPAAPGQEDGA
method-notes: Inhibition of AXL (unknown origin) by LC-MS analysis
measure-name: IC50 (µM)

[[record]]
smiles_text = "CN(Cc1ccc2nccn2c1)c1nnc(-c2ccccc2)o1"
measure_name = "IC50"
display_unit = "µM"
censor_symbol = ">"
number = 100

[[record]]
smiles_text = "Cc1cc(-c2c(C)nc(C)n2C)ccc1-c1nnc(N(C)Cc2ccc3nccn3c2)o1"
measure_name = "IC50"
display_unit = "µM"
censor_symbol = "="
number = 3.98

[[record]]
smiles_text = "Cc1cc(-c2c(C#N)nn(C)c2C)ccc1-c1nnc(N(C)Cc2ccc3nccn3c2)o1"
measure_name = "IC50"
display_unit = "µM"
censor_symbol = "="
number = 6.31

[[record]]
smiles_text = "Cc1ccccc1-c1ccc(-c2nnc(N(C)Cc3ccc4nccn4c3)o2)cc1"
measure_name = "IC50"
display_unit = "µM"
censor_symbol = "="
number = 0.631

[[record]]
smiles_text = "Cc1nn(C)c(C)c1-c1ccc(-c2nnc(N(C)Cc3ccc4nccn4c3)o2)cc1"
measure_name = "IC50"
display_unit = "µM"
censor_symbol = "="
number = 1.26

[[record]]
smiles_text = "Cc1cc(-c2c(C)n[nH]c2C)ccc1-c1nnc(N(C)Cc2ccc3nccn3c2)o1"
measure_name = "IC50"
display_unit = "µM"
censor_symbol = "="
number = 5.01

[[record]]
smiles_text = "Cc1cc(-c2c(C)nn(C)c2C)cnc1-c1nnc(N(C)Cc2ccc3nccn3c2)o1"
measure_name = "IC50"
display_unit = "µM"
censor_symbol = "="
number = 1

[[record]]
smiles_text = "CN(Cc1ccc2nccn2c1)c1nnc(-c2ccc(C3CC3)cc2)o1"
measure_name = "IC50"
display_unit = "µM"
censor_symbol = "="
number = 20

[[record]]
smiles_text = "Cc1ncccc1-c1ccc(-c2nnc(N(C)Cc3ccc4nccn4c3)o2)cc1"
measure_name = "IC50"
display_unit = "µM"
censor_symbol = "="
number = 6.31

[[record]]
smiles_text = "CN(Cc1ccc2nccn2c1)c1nnc(-c2ccc(-c3ccccc3C#N)cc2)o1"
measure_name = "IC50"
display_unit = "µM"
censor_symbol = "="
number = 3.98

[[record]]
smiles_text = "CN(Cc1ccc2nccn2c1)c1nnc(-c2ccc(-c3ccccc3)cc2)o1"
measure_name = "IC50"
display_unit = "µM"
censor_symbol = "="
number = 3.16

[[record]]
smiles_text = "Cc1cc(-c2c(C)nn(C(F)F)c2C)ccc1-c1nnc(N(C)Cc2ccc3nccn3c2)o1"
measure_name = "IC50"
display_unit = "µM"
censor_symbol = "="
number = 63.1

[[record]]
smiles_text = "Cc1nc(-c2c(C)nn(C)c2C)ccc1-c1nnc(N(C)Cc2ccc3nccn3c2)o1"
measure_name = "IC50"
display_unit = "µM"
censor_symbol = "="
number = 3.16

